Tested on: Enterobacter hormaechei
Experiment: Antibacterial activity against Enterobacter hormaechei isolate UCN62
Assay type: functional
The reader will find reported MIC values listed item by item below.
measured-attribute: MIC (µg/mL)

INSERT INTO results (molecule, qualifier_symbol, measured_number) VALUES
  ('C[C@@H](O)[C@H]1C(=O)N2C(C(=O)O)=C(SCCNC=N)C[C@H]12 [IMIPENEM ANHYDROUS]', '=', 1),
  ('NCC[C@H](O)C(=O)N[C@@H]1C[C@H](N)[C@@H](O[C@H]2O[C@H](CN)[C@@H](O)[C@H](O)[C@H]2O)[C@H](O)[C@H]1O[C@H]1O[C@H](CO)[C@@H](O)[C@H](N)[C@H]1O [AMIKACIN]', '=', 4),
  ('O=C(O)c1cn(C2CC2)c2cc(N3CCNCC3)c(F)cc2c1=O [CIPROFLOXACIN]', '>', 16),
  ('CN(C)c1cc(NC(=O)CNC(C)(C)C)c(O)c2c1C[C@H]1C[C@H]3[C@H](N(C)C)C(O)=C(C(N)=O)C(=O)[C@@]3(O)C(O)=C1C2=O [TIGECYCLINE]', '=', 2),
  ('CO/N=C(\C(=O)N[C@@H]1C(=O)N2C(C(=O)O)=C(COC(C)=O)CS[C@H]12)c1csc(N)n1 [CEFOTAXIME]', '>', 64);

Hello, the source for this data is ChEMBL document CHEMBL1649266, in case you need it.
